Study Target: UBE2D2 (Homo sapiens (Human), UniProt P62837)
Sequence (P62837 whole entry, looked up): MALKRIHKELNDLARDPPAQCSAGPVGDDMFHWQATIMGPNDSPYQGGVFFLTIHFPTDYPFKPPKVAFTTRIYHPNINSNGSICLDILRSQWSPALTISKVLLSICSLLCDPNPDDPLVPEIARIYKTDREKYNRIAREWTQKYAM
Assay Summary: ITC 25 C, TWO LABS merged (one a row), salt differs
Measure Name: Kd (µM)
I only need the number, in µM, no unit after it.

Please fill in: Kd reported for Arkadia (protein) KQDGEEGTEEDTEEKCTICLSILEEGEDVRRLPCMHLFHQVCVDQWLITNKKCPICRVDIEAQLPSES = 32

FYI, the data here is from paper PMC5941314.
